Data provenance is ChEMBL document CHEMBL1201862.

System: SF-268
Test: NCI tumour cell line growth inhibition, 48 h
Active and inactive are the calls of the source. Cut-off read from the data, not from the text of the source: active = GI50 up to about 1.1 µM and inactive = higher.
Returns: one label drawn from True for active, False for inactive

As a guide, the following entries are already answered.
INSERT INTO results (molecule, class_name) VALUES
  ('CCOC(=O)CC[C@H](NC(=O)c1nc[nH]c1/N=N/N(C)C)C(=O)OCC', 'False'),
  ('COc1ccc(-n2c(C)nc3ccc(NC4OCC(O)C(O)C4O)cc3c2=O)cc1 (stereo unspecified)', 'False'),
  ('CC1=C(C)C2(C#N)C(=O)N3C(=NC(c4ccco4)NC3c3ccco3)C2(C#N)C(c2ccco2)N1 (stereo unspecified)', 'False'),
  ('CCCCCCCCCCC(O)CCCCCCC(=O)O (stereo unspecified)', 'False'),
  ('COc1ccc(OC)c(N2CC(N)C2=O)c1 (stereo unspecified)', 'False');

query: GET /call?item= CC(C)=Cc1cc(C(=O)Nc2ccc(Cl)c(Cl)c2)nc(N)n1 returns the recorded outcome of this test.
result: False

query: Can you handle CC[C@H]1C=CCC[C@@]2(C[C@@H]3CC[C@@H]4[C@H](C(=O)OCCCCCCCCCCCCCCCC(=O)N(CCCN)CCCCN)[C@]5(CCC[C@@H](C)O5)NC(=[N+]34)N2)O1 next?
result: True

query: Can you handle CC(C)(CN1CCCCC1)C(=O)/C=C/c1c(Cl)cccc1Cl next?
result: False

query: Can you handle Cc1cc(NS(=O)(=O)c2ccc(Nc3c4ccccc4nc4c(C(=O)N5CCN(CCOS(C)(=O)=O)CC5)cccc34)cc2)no1 next?
result: False
